Biological target: CFTR-G178R (Homo sapiens, UniProt P13569, G178R)
Sequence (P13569 whole entry G178R): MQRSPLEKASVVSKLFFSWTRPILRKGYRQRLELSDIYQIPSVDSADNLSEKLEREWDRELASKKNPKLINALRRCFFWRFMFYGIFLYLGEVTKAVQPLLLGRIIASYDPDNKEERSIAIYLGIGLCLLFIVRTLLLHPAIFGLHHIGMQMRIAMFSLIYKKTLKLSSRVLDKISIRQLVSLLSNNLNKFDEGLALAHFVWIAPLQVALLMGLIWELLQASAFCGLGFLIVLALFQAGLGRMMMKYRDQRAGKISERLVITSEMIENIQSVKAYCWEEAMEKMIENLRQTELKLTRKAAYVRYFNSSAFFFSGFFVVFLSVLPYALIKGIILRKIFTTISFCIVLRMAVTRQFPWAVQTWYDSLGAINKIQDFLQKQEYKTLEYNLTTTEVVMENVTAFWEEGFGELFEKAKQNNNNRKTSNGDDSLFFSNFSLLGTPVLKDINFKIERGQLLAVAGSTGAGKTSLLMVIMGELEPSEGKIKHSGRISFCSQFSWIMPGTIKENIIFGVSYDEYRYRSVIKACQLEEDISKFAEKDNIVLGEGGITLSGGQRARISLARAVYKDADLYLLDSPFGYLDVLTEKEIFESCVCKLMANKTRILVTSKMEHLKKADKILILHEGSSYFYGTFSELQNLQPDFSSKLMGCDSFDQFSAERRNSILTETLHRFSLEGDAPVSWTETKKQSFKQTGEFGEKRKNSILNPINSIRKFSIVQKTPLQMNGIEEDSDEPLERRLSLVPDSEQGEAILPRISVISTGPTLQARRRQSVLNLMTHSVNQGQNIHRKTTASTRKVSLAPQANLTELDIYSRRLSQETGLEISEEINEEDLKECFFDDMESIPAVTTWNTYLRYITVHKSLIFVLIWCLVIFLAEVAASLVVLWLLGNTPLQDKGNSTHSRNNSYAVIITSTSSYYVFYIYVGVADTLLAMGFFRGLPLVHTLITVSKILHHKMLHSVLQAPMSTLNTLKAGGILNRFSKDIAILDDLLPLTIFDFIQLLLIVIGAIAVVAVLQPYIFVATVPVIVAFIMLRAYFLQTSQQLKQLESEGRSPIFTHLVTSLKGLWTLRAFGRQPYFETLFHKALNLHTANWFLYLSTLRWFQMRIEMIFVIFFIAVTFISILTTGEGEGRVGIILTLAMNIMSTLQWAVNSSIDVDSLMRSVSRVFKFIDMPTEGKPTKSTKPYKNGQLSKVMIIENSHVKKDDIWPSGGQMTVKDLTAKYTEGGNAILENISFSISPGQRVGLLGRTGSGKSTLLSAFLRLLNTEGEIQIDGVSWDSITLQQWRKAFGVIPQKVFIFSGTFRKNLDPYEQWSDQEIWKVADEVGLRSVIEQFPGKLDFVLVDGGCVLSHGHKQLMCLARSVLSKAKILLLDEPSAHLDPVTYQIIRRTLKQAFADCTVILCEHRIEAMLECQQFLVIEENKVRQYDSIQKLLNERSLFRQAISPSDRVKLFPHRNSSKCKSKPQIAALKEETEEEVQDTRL
Experiment: YFP-halide influx assay for the CFTR-G178R
Conditions: read-out: EC50 measured by YFP-halide influx assay for the CFTR-G178R
Mark each entry y if its EC50 sits below 50 nM, and n for all others.

• CC1(C)Cc2c(sc(NC(=O)c3n[nH]cc3Br)c2C(N)=O)C(C)(C)O1 [Compound 33] = n
• Cc1cn[nH]c1C(=O)Nc1sc2c(c1C(N)=O)CC(C)(C)OC2(C)C [Compound 35] = y
• CC1(C)Cc2c(sc(NC(=O)c3cc(C(F)(F)F)[nH]n3)c2C(N)=O)C(C)(C)O1 [Compound 15] = n
• CC1(C)Cc2c(sc(NC(=O)c3n[nH]cc3C3=CCOCC3)c2C(N)=O)C(C)(C)O1 [Compound 45] = n
• CCOCCc1c[nH]nc1C(=O)Nc1sc2c(c1C(N)=O)CC(C)(C)OC2(C)C [Compound 72] = y
• CC1(C)Cc2c(sc(NC(=O)c3ccn(CC(F)(F)F)n3)c2C(N)=O)C(C)(C)O1 [Compound 121] = n
• CC(C)(C)CC(O)C(=O)Nc1sc2c(c1C(N)=O)CC(C)(C)OC2(C)C (single isomer, unassigned) [Compound 110] = y
• COCc1[nH]nc(C(=O)Nc2sc3c(c2C(N)=O)CC(C)(C)OC3(C)C)c1Cl [Compound 50] = y
